Target System: UniProt:Q9NWZ3
Assay Method Text: IRAK-4 ELISA, PBMC degradation
Type: cell-based
Parameters: endogenous in cells; host or cells: PBMC
Assay Context: treated overnight
Observable: Dmax

Compound	Dmax
CN(C1CCC(n2cc3cc(NC(=O)c4cnn5cccnc45)c(OCC4CC4)cc3n2)CC1)C1CCN(c2ccc3c(c2)C(=O)N(C2CCC(=O)NC2=O)C3)CC1 (stereo not drawn) [Example 354]	70 to 80%
O=C1CCC(N2C(=O)c3ccc(N4CCN(CCN5CCC([C@H](F)CN6Cc7cc(NC(=O)c8cnn9cccnc89)c(N8CCOCC8)cc7C6=O)CC5)CC4)cc3C2=O)C(=O)N1 (stereo partly drawn) [Example 93]	≥ 90%

IN: So what Dmax did O=C1CCC(N2C(=O)c3ccc(N4CCN(C[C@H]5CC[C@H](n6cc7cc(NC(=O)c8cnn9cccnc89)c(OCC8CC8)cc7n6)CC5)CC4)cc3C2=O)C(=O)N1 (stereo partly drawn) [Example 375] get with UniProt:Q9NWZ3?
OUT: ≥ 90%

* * *

Test system: IL6
Assay Method Text: R848 stimulated IL6 inhibition assay in PBMC
Type: cell-based
Assay Context: PBMC; human PBMCs, R848 stimulation, compound overnight, IL6 by MSD after 24 hrs; read-out: R848 stim IL6 inhibition IC50
Method: IL-1β, LPS, or R848 Stimulated IL6 Inhibition and IL-1β Stimulated IL8 Inhibition Assay Human PBMC cells were seeded at 2.0×10^6 cells/mL, treated with compound overnight, and dosed with the EC50 concentration of each stimulant (either IL-1B. LPS, or R848) was determined for each donor. After 24 hrs, media was collected and analyzed by MSD for IL6 and/or IL8 levels.
pIC50: −log10 of the molar value.
pIC50 values for the compounds below.

Completed entries (count: 4):
Compound	Target System	pIC50
O=C1CCC(N2C(=O)c3ccc(N4CC(F)(CN5CCC(n6cc7cc(NC(=O)c8cnn9cccnc89)c(OCC8CC8)cc7n6)CC5)C4)cc3C2=O)C(=O)N1 (centres unmarked) [Example 161]	IL6	7.30 to 8.00
COc1cc(N2CCC(CN3CCC(N4Cc5cc(NC(=O)c6cnn7cccnc67)c(OC(C)C)cc5C4=O)CC3)CC2)cc2c1C(=O)N(C1CCC(=O)NC1=O)C2 (centres unmarked) [Example 23]	IL6	7.30 to 8.00
O=C1CCC(N2C(=O)c3ccc(N4CC[C@@H](O[C@H]5CC[C@@H](n6cc7cc(NC(=O)c8cnn9cccnc89)c(OCC8CC8)cc7n6)CC5)C4)cc3C2=O)C(=O)N1 (some centres unmarked) [Example 425]	IL6	7.00 to 7.30
O=C1CCC(NC(=O)c2ccc(O[C@H]3C[C@H](N[C@H]4CC[C@H](n5cc6cc(NC(=O)c7cnn8cccnc78)c(OCC7CC7)cc6n5)CC4)C3)cc2F)C(=O)N1 (some centres unmarked) [Example 376]	IL6	7.30 to 8.00

Please turn your attention to the following entry.
IN: Query (compound): CC(C)Oc1cc2c(cc1NC(=O)c1cnn3cccnc13)CN(C[C@@H](F)C1CCN(CC3CN(c4cccc5c4n(C)c(=O)n5C4CCC(=O)NC4=O)C3)CC1)C2=O (some centres unmarked) [Example 382] ; field requested: pIC50
OUT: 7.30 to 8.00

* * *

Target System: IRAK-4 (Homo sapiens, UniProt Q9NWZ3)
Sequence (Q9NWZ3 whole entry): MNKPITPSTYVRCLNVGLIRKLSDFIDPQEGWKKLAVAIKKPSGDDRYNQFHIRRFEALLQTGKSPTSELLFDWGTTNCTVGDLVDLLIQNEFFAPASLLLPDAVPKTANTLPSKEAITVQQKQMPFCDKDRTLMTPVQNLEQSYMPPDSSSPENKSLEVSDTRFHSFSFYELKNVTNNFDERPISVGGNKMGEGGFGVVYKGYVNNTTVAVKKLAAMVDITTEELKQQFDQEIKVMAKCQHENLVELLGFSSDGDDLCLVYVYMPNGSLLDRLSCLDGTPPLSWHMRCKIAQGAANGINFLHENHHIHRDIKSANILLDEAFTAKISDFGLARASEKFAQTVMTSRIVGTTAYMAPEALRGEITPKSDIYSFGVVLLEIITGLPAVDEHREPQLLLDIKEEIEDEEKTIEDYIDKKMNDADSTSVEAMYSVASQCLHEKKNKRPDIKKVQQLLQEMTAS
Assay Method Text: IRAK-4 ELISA, PBMC degradation
Format: cell-based
Set-up: endogenous in cells; host or cells: PBMC
Assay Context: treated overnight
Observable: DC50

Compound	DC50
O=C1CCC(N2C(=O)c3ccc(N4CCC(CN5CCC(n6cc7cc(NC(=O)c8cnn9cccnc89)c(N8CCN(CC(F)F)CC8)cc7n6)CC5)CC4)cc3C2=O)C(=O)N1 (stereo not shown)	1 to 5 nM
COc1cc(N2CC(CN3CCC(N4Cc5cc(NC(=O)c6cnn7cccnc67)c(OC(C)C)nc5C4=O)CC3)C2)cc2c1C(=O)N(C1CCC(=O)NC1=O)C2 (stereo not shown)	1 to 5 nM
CC(C)Oc1cc2c(cc1NC(=O)c1cnn3cccnc13)CN(C1CCN(CC3CN(c4ccc5c(c4)C(=O)N(C4CCC(=O)NC4=O)C5=O)C3)CC1)C2=O (stereo not shown)	1 to 5 nM
CC(C)Oc1cc2c(cc1NC(=O)c1cnn3cccnc13)CN(C[C@@H](F)C1CN(CC3CCN(c4ccc5c(c4)CN(C4CCC(=O)NC4=O)C5=O)CC3)C1)C2=O (stereo partly shown)	< 1 nM
CC(C)Oc1cc2c(cc1NC(=O)c1cnn3cccnc13)CN(C1CCN(CC3CN(c4cccc5c4n(C)c(=O)n5C4CCC(=O)NC4=O)C3)CC1)C2=O (stereo not shown)	< 1 nM
CC(C)Oc1nc2c(cc1NC(=O)c1cnn3cccnc13)CN(C1CCN(CC3CN(c4ccc5c(c4)CN(C4CCC(=O)NC4=O)C5=O)C3)CC1)C2=O (stereo not shown)	1 to 5 nM

IN: Fill in the blank: the reported DC50 of CN(C1CCC(N2Cc3cc(NC(=O)c4cnn5cccnc45)c(OCC4CC4)cc3C2=O)CC1)C1CN(c2ccc3c(c2)C(=O)N(C2CCC(=O)NC2=O)C3=O)C1 (stereo not shown) is ____.
OUT: < 1 nM

IN: Also CC(C)Oc1cc2c(cc1NC(=O)c1cnn3cccnc13)CN([C@H]1CC[C@H](N3CCN(c4ccc5c(c4)C(=O)N(C4CCC(=O)NC4=O)C5=O)CC3)CC1)C2=O (stereo partly shown) ?
OUT: 1 to 5 nM

IN: Same lookup for COc1cc2nn(C3CCN(CCc4ccc5c(c4)CN(C4CCC(=O)NC4=O)C5=O)CC3)cc2cc1NC(=O)c1cnn2cccnc12 (stereo not shown) , please.
OUT: 1 to 5 nM

IN: Next entry: O=C1CCC(N2Cc3c(ccc(N4CCC(CN5CCC(N6Cc7cc(NC(=O)c8cnn9cccnc89)c(N8CCN(CC(F)F)CC8)cc7C6=O)CC5)CC4)c3F)C2=O)C(=O)N1 (stereo not shown)
OUT: < 1 nM

IN: Continue with CC(C)Oc1cc2c(cc1NC(=O)c1cnn3cccnc13)CN([C@H]1CC[C@@H](N3CCN(c4ccc5c(c4)CN(C4CCC(=O)NC4=O)C5=O)CC3)CC1)C2=O (stereo partly shown)
OUT: < 1 nM
